# MEASUREMENT DESCRIPTION: Three-treatment crossover pharmacokinetics of IN nalmefene, three dosing regimens (Example 13)
# STATED CONDITIONS: human, plasma, other: intranasal (IN spray), 3 mg, AUC0-10 min, mean, Treatment A (T1) 3 mg in one nostril
QUANTITY NAME: AUC(0-t) (ng·h/mL)
Report the figure in ng·h/mL without appending any unit label.

Look up AUC(0-t) for this compound: C=C1CC[C@@]2(O)[C@H]3Cc4ccc(O)c5c4[C@@]2(CCN3CC2CC2)[C@H]1O5 [Nalmefene]
0.48

----------
# MEASUREMENT DESCRIPTION: Three-treatment crossover pharmacokinetics of IN nalmefene, three dosing regimens (Example 13)
# STATED CONDITIONS: human, plasma, other: intranasal (IN spray), 6 mg, AUC0-30 min, mean, Treatment C (T3) 6 mg in one nostril
QUANTITY NAME: AUC(0-t) (ng·h/mL)
Number in ng·h/mL, nothing else.

Data request, read-out AUC(0-t), for C=C1CC[C@@]2(O)[C@H]3Cc4ccc(O)c5c4[C@@]2(CCN3CC2CC2)[C@H]1O5 [Nalmefene]
5.58

----------
# MEASUREMENT DESCRIPTION: Three-treatment crossover pharmacokinetics of IN nalmefene, three dosing regimens (Example 13)
# STATED CONDITIONS: human, plasma, other: intranasal (IN spray), 3 mg, AUC0-30 min, mean, Treatment A (T1) 3 mg in one nostril
QUANTITY NAME: AUC(0-t) (ng·h/mL)
Numbers only here, please. The scale is ng·h/mL.

Request the reported AUC(0-t) associated with C=C1CC[C@@]2(O)[C@H]3Cc4ccc(O)c5c4[C@@]2(CCN3CC2CC2)[C@H]1O5
3.19

----------
# MEASUREMENT DESCRIPTION: Two-period crossover pharmacokinetics of nalmefene 3 mg IN vs 1.0 mg IM (Example 12)
# STATED CONDITIONS: human, plasma, intramuscular, 1 mg, Mean plasma concentration, Treatment B 1.0 mg IM; 8.00 h
QUANTITY NAME: concentration at 8 h
# output: numeric value plus its unit

Query (compound): C=C1CC[C@@]2(O)[C@H]3Cc4ccc(O)c5c4[C@@]2(CCN3CC2CC2)[C@H]1O5 [Nalmefene] ; field requested: concentration at 8 h
0.67 ng/mL

----------
# MEASUREMENT DESCRIPTION: Three-treatment crossover pharmacokinetics of IN nalmefene, three dosing regimens (Example 13)
# STATED CONDITIONS: human, plasma, other: intranasal (IN) spray, 3 mg, […], Median, T1 (3 mg IN, one spray in one nostril); time 0.333
QUANTITY NAME: concentration at […] (ng/mL)
Record the value in ng/mL, omitting the unit from your answer.

Look up concentration at […] for this compound: C=C1CC[C@@]2(O)[C@H]3Cc4ccc(O)c5c4[C@@]2(CCN3CC2CC2)[C@H]1O5
8.07

----------
# MEASUREMENT DESCRIPTION: Three-treatment crossover pharmacokinetics of IN nalmefene, three dosing regimens (Example 13)
# STATED CONDITIONS: human, plasma, other: intranasal (IN spray), 3 mg, AUC0-5 min, mean, Treatment A (T1) 3 mg in one nostril
QUANTITY NAME: AUC(0-t) (ng·h/mL)
Express your answer in ng·h/mL, writing the number without its unit.

Field request: AUC(0-t) | item: C=C1CC[C@@]2(O)[C@H]3Cc4ccc(O)c5c4[C@@]2(CCN3CC2CC2)[C@H]1O5 [Nalmefene]
0.0618
